# experiment_summary: small-molecule microarray binders of probe aXIP, primary screen, biochemical, NeuroSMM set, 635/667 nm fluorescence (AID 1119);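 further: probe is the protein aXip251-270 applied at 1 µg/mL to compound-printed slides; binding of probe to printed compounds measured as 667 nm fluorescence plus signal to noise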
# assay_setup: higher = more signal, called active from +8 up or from −8 down
reported_endpoint: composite Z-score
// response body must contain only the number

Sample records with composite Z-score:
C=CCNC(=O)[C@@H]1[C@H]2C(=O)O[C@H](c3ccccc3)[C@H](c3ccccc3)N2[C@H](c2ccccc2OCCO)[C@@]12C(=O)N(C(=O)OCCOC)c1ccc(C#CC3=CCCCC3)cc12	2.45
NCCCCCNC(=O)[C@@H]1C[C@@H]2C(=O)N[C@@H](CCCCN)C(=O)N2[C@@H]1c1cccc(OCCO)c1	0.416
COCC(=C=CC[C@H](O)c1cccc(OCCO)c1)C[C@H](O)c1ccccn1	-0.0402

For the next question, use this molecule.
Value lookup for composite Z-score; key = O=C(CS)NCCCCCCNC(=O)[C@H]1C[C@H]2C(=O)N[C@@H](Cc3ccccc3)C(=O)N2[C@H]1c1cccc(OCCO)c1 0.131

----------
# measured_on: Pro-neuregulin-1, membrane-bound isoform (Homo sapiens) (UniProt Q02297)
# Sequence (Q02297 whole entry, looked up, canonical isoform): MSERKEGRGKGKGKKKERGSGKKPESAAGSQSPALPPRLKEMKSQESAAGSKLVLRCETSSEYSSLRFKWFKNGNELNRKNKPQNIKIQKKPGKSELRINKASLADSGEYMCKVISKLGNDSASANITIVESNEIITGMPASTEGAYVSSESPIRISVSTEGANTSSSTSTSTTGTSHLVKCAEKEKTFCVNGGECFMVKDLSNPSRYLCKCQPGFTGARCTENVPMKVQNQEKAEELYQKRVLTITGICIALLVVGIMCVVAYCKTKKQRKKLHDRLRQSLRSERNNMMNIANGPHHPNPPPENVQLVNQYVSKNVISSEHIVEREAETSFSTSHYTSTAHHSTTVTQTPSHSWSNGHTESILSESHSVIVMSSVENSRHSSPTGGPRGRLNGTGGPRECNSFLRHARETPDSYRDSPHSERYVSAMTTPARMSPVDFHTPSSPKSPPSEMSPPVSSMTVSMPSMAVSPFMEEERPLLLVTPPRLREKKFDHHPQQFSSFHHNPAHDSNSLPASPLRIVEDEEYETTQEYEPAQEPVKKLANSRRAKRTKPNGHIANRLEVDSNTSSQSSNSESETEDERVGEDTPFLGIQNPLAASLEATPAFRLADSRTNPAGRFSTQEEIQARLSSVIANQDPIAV
# experiment_summary: NRG1 binders on small-molecule microarrays, primary screen, psychiatric disease protein project, biochemical, small-molecule microarray, fluorescence 635/667 (AID 1075);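 further: score combines 667 nm spot fluorescence with signal to noise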
# assay_setup: NRG1 binding, 635 nm fluorescence, higher = more signal
reported_endpoint: composite z-score
// response body must contain only the number

Sample records with composite z-score:
COc1ccc([Si](C)(C)[C@H]2[C@H](CCn3cc([C@H](O)c4ccccc4)nn3)O[C@@]3(C(=O)N(Cc4cccc(N5C(=O)c6cccc7cccc5c67)c4)c4ccccc43)[C@@H]2C)cc1	0.84
COCCOC(=O)N1C(=O)[C@@]2(c3cc(C#CC4(O)CCCCCC4)ccc31)[C@H](C(N)=O)[C@H]1C(=O)O[C@H](c3ccccc3)[C@H](c3ccccc3)N1[C@@H]2c1ccc(O)cc1	0.446

Value lookup for composite z-score; key = CC(C)CNC(=O)[C@@H]1c2ccccc2C(=O)N(Cc2cc(F)cc(C(F)(F)F)c2)[C@H]1c1ccc(CO)cc1 0.38

----------
# experiment_summary: mitochondrial membrane potential change in A549 cells, profiling panel, cell-based, JC-1 fluorescence, basal, 24 h, 100 nL (AID 1138);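 further: A549 lung adenocarcinoma cells under basal conditions with no added stimulus; test concentration not given here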
# assay_setup: higher = more signal
The reader will find reported z-score values listed item by item below.
// response body must contain only the number

Value lookup for z-score; key = CN(C)C(=O)[C@@]1(Cc2ccccc2N=[N+]=[N-])COC(c2ccc(OCCCO)cc2)=N1 1.76

Value lookup for z-score; key = C=C(CCCC)/C(=C/C[C@@H](OC(=O)c1ccncc1)c1cccc(OCCO)c1)c1cnc2ccccc2c1 1.14

Value lookup for z-score; key = C=CC[C@]12N=C(c3ccc(OCCCO)cc3)O[C@H]1c1ccccc1N(C)C2=O -0.829

Value lookup for z-score; key = COc1cc2c(cc1OC)CN(C(=O)[C@@H]1[C@H]3C(=O)O[C@H](c4ccccc4)[C@H](c4ccccc4)N3[C@H](c3ccccc3OCCO)[C@@]13C(=O)Nc1ccc(C#CC4(O)CCCCCC4)cc13)CC2 -0.825

----------
# measured_on: Fibroblast growth factor 2 (Homo sapiens)
# experiment_summary: FGF2 binders on small-molecule microarrays, primary screen, biochemical, small-molecule microarray, 635/667 nm fluorescence (AID 1133)
# assay_setup: small-molecule microarray binding, FGF2, fluorescence 635/667; higher = more signal
reported_endpoint: composite z-score

Sample records with composite z-score:
O=C1O[C@@H](c2ccccc2)[C@@H](c2ccccc2)N2[C@@H](c3ccc(O)cc3)[C@]3(C(=O)Nc4ccc(C#CCCO)cc43)[C@@H](C(=O)NC[C@H](O)c3ccccc3)[C@H]12	-1.11
COCCOC(=O)N1C(=O)[C@@]2(c3ccccc31)[C@H](c1ccc(OCCO)cc1)N1[C@H](c3ccccc3)[C@H](c3ccccc3)OC(=O)[C@H]1[C@@H]2C(=O)Nc1nc2ccccc2s1	1.05
CC(CO)N1C(=O)[C@@H]2C3C(=O)OCCC/C=C\[C@H]3OC23C=CCN(Cn2nnc4ccccc42)C(=O)[C@@H]13 (stereo partly drawn)	-0.614
C=C[C@H](COC(C)=O)NS(=O)(=O)c1ccc(Br)cc1	-0.0651

For the next question, use this compound.
What value of composite z-score on Fibroblast growth factor 2 (Homo sapiens) does CC(C)C(=C=CC[C@@H](O)c1ccccc1OCCO)C[C@@H](O)COCc1ccccc1 have? 1.45

----------
# measured_on: Torsin-1A (Homo sapiens)
# experiment_summary: small-molecule binders of mutant TOR1A in lysate, primary screen, cell lysate, small-molecule microarray, COS7 lysate, 635/667 nm fluorescence (AID 1150);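 further: score pools 667 nm emission and signal to noise measuring lysate protein binding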
# assay_setup: COS7 hTOR1A mutant lysate, 635 nm fluorescence, higher = more signal
Answer 0 (no) if composite z-score is under 0.8, and 1 (yes) if it is 0.8 or more.

Is it the case that COc1ccc(C#Cc2ccc3c(c2)[C@]2(C(=O)N3)[C@H](C(=O)N3CCc4cc(OC)c(OC)cc4C3)[C@H]3C(=O)O[C@H](c4ccccc4)[C@H](c4ccccc4)N3[C@@H]2c2ccc(O)cc2)cc1 has composite z-score reaching or exceeding 0.8? 0 (no)

----------
# experiment_summary: inhibitors of hydroxyurea-induced Chk1 phosphorylation, primary screen, imaging, HeLa, phospho-Chk1 nuclear intensity (AID 1187); further: test concentration not given here
# assay_setup: hydroxyurea-induced phospho-Chk1 immunofluorescence imaging, higher = more signal
Activity calls are given as the source filed them. The rule behind the calls is not given here.
reported_endpoint: z-score

Sample records with z-score:
O=C1C[C@@](C(=O)NCC(F)(F)F)(c2ccc([N+](=O)[O-])cc2)[C@@H](c2ccc(CO)cc2)N1C1CCCCC1	-0.32 (inactive)
O=C1O[C@@H](c2ccccc2)[C@@H](c2ccccc2)N2[C@@H](c3ccc(O)cc3)[C@]3(C(=O)Nc4ccc(C#CCCO)cc43)[C@@H](C(=O)NC[C@H](O)c3ccccc3)[C@H]12	-0.46 (inactive)
O=C(N1CCCCC1)[C@@]1(Cc2ccccc2)COC(c2ccc(OCCCO)cc2)=N1	-0.344 (inactive)
CCOC(=O)[C@@H]1[C@@H]2C(=O)N(CC)C(=O)[C@@H]2C[C@@H]1Sc1ccccc1	0.647 (inactive)
CC(C)CN1C(=O)[C@@]2(c3ccc([N+](=O)[O-])cc3)CC(=O)N(CC34CC5CC(CC(C5)C3)C4)[C@@H]2c2ccc(CO)cc21	-0.164 (inactive)

Value lookup for z-score; key = CCOc1cc(C(O)C2C=CC3C(=O)N(C4CCCCC4)C(=O)C3N2Nc2ccc(OC)cc2)ccc1O (stereo not drawn) -0.813 (inactive)

Value lookup for z-score; key = CC(=O)N1Cc2ccccc2C[C@]2(N=C(c3ccc(OCCCO)cc3)O[C@@H]2c2ccccc2)C1=O -0.0442 (inactive)

Value lookup for z-score; key = CC=CC(O)C1C=CC2C(=O)N(C)C(=O)C2N1Nc1ccc([N+](=O)[O-])cc1[N+](=O)[O-] (stereo not drawn) -0.104 (inactive)

Value lookup for z-score; key = CCOC(=O)C[C@H]1[C@H](OC(=O)Cc2ccc3c(c2)OCO3)[C@@H](NC(=O)Cc2ccc(OC)cc2)c2cc(OCCCO)ccc2N1C(=O)c1ccccc1 -0.165 (inactive)

Value lookup for z-score; key = CCCN1C(=O)[C@]2(Cc3ccccc3)N=C(c3ccc(OCCCO)cc3)O[C@@H]2c2ccccc21 0.231 (inactive)

Value lookup for z-score; key = C=C(/C=C/CNS(=O)(=O)c1ccc(C)cc1)[C@H](O)[C@H]1CCCN1S(=O)(=O)c1ccccc1[N+](=O)[O-] 0.181 (inactive)

Value lookup for z-score; key = C=CC[C@@]1(C(=O)N2CCCCC2)N=C(c2ccc(OCCCO)cc2)O[C@@H]1c1ccccc1 -0.146 (inactive)

Value lookup for z-score; key = COc1c(C)cc(-c2cc3c(c(-c4ccccc4)n2)[Si](C(C)C)(C(C)C)OC3)cc1C -0.268 (inactive)

----------
# experiment_summary: inhibitors of hydroxyurea-induced Chk1 phosphorylation, primary screen, imaging, HeLa, phospho-Chk1 antibody, percent positive cells (AID 1186)
# assay_setup: hydroxyurea-induced phospho-Chk1 immunofluorescence imaging, higher = more signal
The reader will find reported z-score values listed item by item below.
// response body must contain only the number

Sample records with z-score:
COCCOC(=O)N1C(=O)[C@@]2(c3cc(C#CC4=CCCCC4)ccc31)[C@H](c1ccc(O)cc1)N1[C@H](c3ccccc3)[C@H](c3ccccc3)OC(=O)[C@H]1[C@@H]2C(=O)Nc1nc2ccccc2s1	0.0256
C=CC[C@]12N=C(c3ccc(OCCCO)cc3)O[C@H]1c1ccccc1N(C)C2=O	-0.0503

For the next question, use this compound.
Value lookup for z-score; key = CC(C)C(=C=CC[C@@H](O)c1ccccc1OCCO)C[C@@H](O)COCc1ccccc1 -0.476

----------
# experiment_summary: small-molecule microarray binders of probe aCHRDL2, primary screen, biochemical, biotinylated probe, 635/667 nm fluorescence (AID 1100)
# assay_setup: higher = more signal
The reader will find reported composite z-score values listed item by item below.
// response body must contain only the number

Sample records with composite z-score:
C=CCOC(=O)[C@@H]1[C@H]2C(=O)O[C@H](c3ccccc3)[C@H](c3ccccc3)N2[C@H](c2ccc(OCCOC(=O)[C@H]3C[C@H]4C(=O)N[C@@H](CCCCNC(C)=O)C(=O)N4[C@H]3c3cccc(OCCO)c3)cc2)[C@@]12C(=O)Nc1ccc(I)cc12	0.182
O=C1OCC=C[C@H]2OC34C=CCN(c5ccc(Cl)cc5)C(=O)[C@H]3N(CCCCCO)C(=O)[C@@H]4[C@@H]12 (stereo partly drawn)	0.822

Value lookup for composite z-score; key = COC(=O)[C@@]1(Cc2ccccc2)[C@H]2c3cc(C(=O)N4CCCC4)[nH]c3C[C@H]2CN1C(=O)c1ccccc1 0.91

Value lookup for composite z-score; key = O=C1c2ccccc2[C@@]2(Cc3ccccc3N(C3CC3)C2=O)[C@H](c2ccc(CO)cc2)N1C1CCCCC1 0.615

Value lookup for composite z-score; key = COc1ccc([Si](C)(C)[C@H]2[C@H](CC(=O)N3Cc4ccccc4C[C@H]3CO)O[C@@]3(C(=O)N(Cc4cccc(N5CCCCC5=O)c4)c4ccccc43)[C@@H]2C)cc1 -0.181

Value lookup for composite z-score; key = COCCOC(=O)N1C(=O)[C@@]2(c3cc(C#CC4(O)CCCCCC4)ccc31)[C@H](c1ccccc1OCCO)N1[C@H](c3ccccc3)[C@H](c3ccccc3)OC(=O)[C@H]1[C@@H]2C(N)=O 0.0813

Value lookup for composite z-score; key = COC(=O)[C@]1(CCS(=O)(=O)c2ccccc2)N=C(c2ccc(OCCCO)cc2)O[C@@H]1c1ccccc1CN=[N+]=[N-] 0.763

Value lookup for composite z-score; key = O=C(CS)NCCCCCCNC(=O)[C@H]1C[C@H]2C(=O)N[C@@H](Cc3ccccc3)C(=O)N2[C@H]1c1cccc(OCCO)c1 0.232
